B1: mRNA-splicing (parent)
chain: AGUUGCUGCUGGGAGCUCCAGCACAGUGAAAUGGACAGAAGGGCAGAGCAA

- Variants of: B1
- experiment_summary: exon inclusion enrichment index; higher = more inclusion; WT1 exon 5 minigene, HEK293
Tag: fulfilled if measured exon inclusion enrichment index is not below 2, not fulfilled if it is.

C6A U7C C9A U10A G11C	fulfilled

[in] API: above_or_equal(metric=exon inclusion enrichment index, cutoff=2) for item G5C C6U G8C C9U U10C G46U
[out] not fulfilled

[in] Again, but for G5A U7C G8A U10C G46U A47U
[out] fulfilled

[in] Again, but for G5C C6G U7C U10C U27C G28C
[out] fulfilled

[in] Again, but for G5A U7C G8A U10C C16G U17C
[out] not fulfilled

// provenance: the RNAGym collection of RNA variant scans (doi:10.1101/gr.219683.116)
